Tested on: SK-MEL-5 melanoma
assay: NCI tumour cell line growth inhibition, 48 h
Assignment: determine reported TGI for the given molecules.
One number for each entry, in µM.

Here are 5 molecules together with their reported answers.
[[record]]
molecule = "COc1ccccc1Cn1cc2c(c1-c1ccccc1)CCc1cnoc1-2"
unit_name = "µM"
result_number = 11.2

[[record]]
molecule = "Fc1ccc(-c2nn3ncccc3c2-c2ccnc(Nc3ccc4c(c3)OCCO4)n2)cc1"
unit_name = "µM"
result_number = 9.51

[[record]]
molecule = "CCN(CC)CC(=O)O[C@]1(CC)C(=O)OCc2c1cc1n(c2=O)Cc2cc3ccccc3nc2-1"
unit_name = "µM"
result_number = 0.171

[[record]]
molecule = "CC(C)(C)c1ccc(O)c(CN(Cc2cc(C(C)(C)C)ccc2O)c2ccccc2)c1"
unit_name = "µM"
result_number = 28.5

[[record]]
molecule = "COC(=O)C(=Cc1cc(OC)c(OC)c(OC)c1-c1cc2c(cc1C(C)=O)OCO2)C(=O)OC"
unit_name = "µM"
result_number = 70.1


Go through the list and state TGI for each entry.
1. O=c1c2cc(S(=O)(=O)O)ccc2nc(COc2ccc(Oc3ccc(Cl)cc3Cl)cc2)n1-c1ccc(Cl)cc1Oc1c(Cl)cccc1Cl
2. CC(C)CCCC(=O)CCCCCCC(=O)CCN(O)C(=O)C(N)CO (centres undefined)
3. NC(CCC(=O)O)C(=O)N1CCN(c2nc(N3CCCC3)c3nc(Cl)c(NCc4ccccc4)nc3n2)CC1 (centres undefined)

1: 32.1; 2: 43.7; 3: 20.9
